Test system: Plasmodium berghei
Test: Screen against P. berghei liver stage (PbLuc), transformed with Luciferase, at 10uM
Format: functional, HepG2
Conditions: tested at 10 uM
Out of some 69,000 compounds screened, about 8,600 (12%) showed an effect of 50% or more. This excerpt belongs to a sample that is enriched for strong results.
# true = INHIBITION below 10% (exclusive); false = INHIBITION at/above 10%

Known results for compounds:
INSERT INTO assay_data (compound, classification) VALUES
  ('Cc1ccc(-c2ncc(C(=O)NS(C)(=O)=O)s2)c(C)c1', 'true'),
  ('O=C(O)Cc1nc2nccc(-c3ccc(F)cc3)n2n1', 'false'),
  ('COc1ccc(OC)c(C(C)NC(=O)c2nn(C)c(C)c2Br)c1 (centres undefined)', 'true'),
  ('O=C(c1c[nH]c(=O)c(Cl)c1)N1CCc2ccccc2C1', 'true'),
  ('CC(=O)Nc1ccc(Cl)c(C(=O)N(C)C(C)c2ccon2)c1 (centres undefined)', 'false'),
  ('O=C(CN1CCCC(c2ncc[nH]2)C1)NCC(F)(F)F (centres undefined)', 'false');

Continue with the next compound.
Please indicate whether the reported INHIBITION of CC(C)Oc1ncc(C(=O)N2CCCC(C(=O)O)C2)cc1Cl (centres undefined) is strictly below 10%.
false

---

System: Plasmodium berghei
Test: Screen against P. berghei liver stage (PbLuc), transformed with Luciferase, at 10uM
Assay type: functional, HepG2
Conditions: tested at 10 uM
About 8,600 (12%) of roughly 69,000 compounds showed an effect of 50% or more. For the sample, strong results were picked, then their nearest neighbours and some compounds at random.
Class boundaries, taken from values of INHIBITION, are as follows: lower level: < 10%; middle level: ≥ 10% and < 40%; upper level: ≥ 40%

INSERT INTO results (compound, system_under_test, classification) VALUES
  ('CN(C)[C@@H]1CN(C(=O)c2cc3ccc(F)cc3[nH]2)C[C@H]1O', 'Plasmodium berghei', 'middle level'),
  ('CC(C)n1ccnc1C1CCN(c2nccc(C(F)(F)F)n2)CC1', 'Plasmodium berghei', 'middle level'),
  ('Cc1cc(CN(CCO)Cc2cc(Br)ccc2F)no1', 'Plasmodium berghei', 'middle level'),
  ('COc1ccccc1CN(CCCn1ccnc1)CC1CCOC1 (centres undefined)', 'Plasmodium berghei', 'upper level'),
  ('CC(C)C1SCC(=O)Nc2c1c(O)nn2C1CCCC1 (centres undefined)', 'Plasmodium berghei', 'lower level'),
  ('Cc1nc(CN2CCCN(C(=O)c3ccccn3)CC2)oc1C', 'Plasmodium berghei', 'upper level'),
  ('CC(C)C1SCC(=O)Nc2c1c(O)nn2C1CCCCC1 (centres undefined)', 'Plasmodium berghei', 'upper level'),
  ('CCCS(=O)(=O)N1Cc2ccnn2CC(c2nc(C)no2)C1 (centres undefined)', 'Plasmodium berghei', 'middle level'),
  ('CC(C)(C)c1ccc(OCC(N)=O)c(CN2C[C@H]3CC(O)C[C@H]3C2)c1 (some centres undefined)', 'Plasmodium berghei', 'middle level'),
  ('Cc1ccc(CN(CCCO)Cc2nc3ccccc3[nH]2)s1', 'Plasmodium berghei', 'middle level');

Band of `CCc1ccc(CNC(=O)N2CCN(Cc3cc(C)on3)CC2)s1` ?
lower level

Assign a category based on measured INHIBITION for Nc1nccnc1C1CN(C(=O)COc2cccnc2)CCO1 (centres undefined) and give only the class name.
lower level

Record CC(=O)N1Cc2nccn2CC(CNC(=O)c2cccnc2)C1 (centres undefined) — which class?
lower level

Any idea which band CC(C)(C)C1SCC(=O)Nc2c1c(O)nn2C1CCCCC1 (centres undefined) is in?
middle level

In plain terms, what class is `Cc1ccc(-c2nnc(SCC(=O)O)n2-c2ccccc2)cc1` ?
lower level

---

Test system: Plasmodium berghei
Assay: Screen against P. berghei liver stage (PbLuc), transformed with Luciferase, at 10uM
Type: functional, HepG2
Settings: tested at 10 uM
In all, about 69,000 compounds went through this assay and about 8,600 (12%) showed an effect of 50% or more. The entries come from a sample that favours strong results as a whole.
Readout Type: INHIBITION (%)
Please state the figure in %; there is no need to write the unit.

Previously resolved entries follow.
INSERT INTO measurements (compound, unit_abbrev, result_number) VALUES
  ('c1cnc(-c2nc(CN3CCn4c(nnc4C4CC4)C3)cs2)nc1', '%', -0.219),
  ('CCc1cccc(OCC(=O)NC(C)c2nnc3n2CCC3)c1 (configuration not stated)', '%', -27.8),
  ('CCCC1CCCN(Cc2csc(-c3ncccn3)n2)CC1 (configuration not stated)', '%', 91.7),
  ('O=C(NCc1cc2ccccc2s1)c1cc(CN2CCCC(O)C2)on1 (configuration not stated)', '%', 50.8),
  ('Cn1cc(-c2nc(CN3CCN(CCO)CC3)cs2)cn1', '%', -0.847);

Requested read-out INHIBITION, target or system Plasmodium berghei, entry Cc1ccc(CC(=O)N2CCCC(c3nccs3)C2)cn1 (configuration not stated)
3.4

Which measured INHIBITION belongs to Cc1nn(C)cc1C(=O)N1CCCC(n2cncn2)C1 (configuration not stated) , tested on Plasmodium berghei?
9.14

Query the reported INHIBITION for Plasmodium berghei; item: `COCCN1CCN(Cc2csc(-c3cnn(C)c3)n2)CC1`
7.75

// fetch Plasmodium berghei INHIBITION for `Cc1ccc(C(=O)Nc2cn[nH]c2)cc1`
31.005

Find the measured INHIBITION: item O=C(CCc1ccccc1F)NC1CCCN(c2ccccn2)C1 (configuration not stated) , target or system Plasmodium berghei.
-40.55

Field: INHIBITION (Plasmodium berghei). Entry: `Cc1c(CS(C)(=O)=O)cccc1NCCCC1CCCC1`
74.8

API: value(readout=INHIBITION, system=Plasmodium berghei) for record CCCC1CCCN(Cc2csc(-c3cnn(C)c3)n2)CC1 (configuration not stated)
55.9

---

System: Plasmodium berghei
Assay: Screen against P. berghei liver stage (PbLuc), transformed with Luciferase, at 10uM
Type: functional, HepG2
Details: tested at 10 uM
In all, about 69,000 compounds went through this assay and about 8,600 (12%) showed an effect of 50% or more. This excerpt belongs to a sample that is enriched for strong results.
Readout Type: INHIBITION (%)
Numeric answer only, unit % assumed.

INSERT INTO measurements (molecule, result_number) VALUES
  ('COc1cc(CNCc2ccnc(N3CCOCC3)c2)cc(Cl)c1OC', 40.3);

What INHIBITION appears in the records for this molecule with Plasmodium berghei? `COCCN(C)C(=O)Nc1ccc2c(ccn2CCOC)c1`
58.4

Lookup: INHIBITION / Plasmodium berghei / `O=C(c1ccn(COc2ccc(F)cc2)n1)N1CCCC1`
-28

Fill in the recorded INHIBITION for this molecule, with Plasmodium berghei as test system: `COc1cc(CNc2nncs2)cc(OC)c1OC`
80.8

Form entry - test system: Plasmodium berghei; read-out: INHIBITION; molecule: `CC(C)c1ccc(OCn2ccc(C(=O)N3CCCC3)n2)cc1`
83.4

What is its INHIBITION for Plasmodium berghei? Entry: COc1ccccc1CN(CC1CCCO1)C(=O)c1ccc(F)cn1 (configuration not stated)
5.23

Which measured INHIBITION belongs to `Cn1cnnc1-c1ccnc(NCc2ccccc2)c1` , tested on Plasmodium berghei?
57.7

// map `COc1cc(CNCCc2cnn(C)c2)cc(OC)c1OC` to recorded INHIBITION (system: Plasmodium berghei)
31.55

Fill in the recorded INHIBITION for this molecule, with Plasmodium berghei as test system: `Cn1cnnc1-c1ccnc(NCc2ccc(Br)cc2)c1`
8.05

Give INHIBITION (Plasmodium berghei) of the following molecule: `Cn1cnnc1-c1ccnc(NCc2ccc3c(c2)OCCO3)c1`
42.3

So what INHIBITION did `COCCN(C)C(=O)Nc1ccc2c(ccn2CC(=O)N(C)C)c1` get with Plasmodium berghei?
19.73

Hello, I am looking for reported INHIBITION with Plasmodium berghei for `COc1cc(CNc2cc(-c3nncn3C)ccn2)cc(OC)c1OC` . Could you help?
53.4

---

Parameter INHIBITION: see the listing below.
System: Plasmodium berghei
Assay: Screen against P. berghei liver stage (PbLuc), transformed with Luciferase, at 10uM
Type: functional, HepG2
Settings: tested at 10 uM
Out of some 69,000 compounds screened, about 8,600 (12%) showed an effect of 50% or more. What follows is part of a selection rich in strong results, with near analogues and random picks from the rest.
Write the answer as a number in %, unit excluded.

INSERT INTO measurements (compound, system_under_test, readout_type, result_number) VALUES
  ('CCN(C(=O)CN1CCn2c(nnc2C2CC2)C1)C1=CCCCC1', 'Plasmodium berghei', 'INHIBITION', 51.2),
  ('CCNC(=O)C1CCN(Cc2ccc(C(=O)Nc3cnns3)cc2)C1 (stereo not drawn)', 'Plasmodium berghei', 'INHIBITION', 12.2),
  ('CCN(C(=O)CN1CCn2c(C)nnc2C1)C1=CCCCC1', 'Plasmodium berghei', 'INHIBITION', -6.46),
  ('Cc1cccc(C(=O)N2C[C@@H]3OCCN(c4ncccn4)[C@@H]3C2)n1', 'Plasmodium berghei', 'INHIBITION', 16.6),
  ('Cc1ccc(N2CCO[C@H]3CN(Cc4ccccn4)C[C@H]32)nn1', 'Plasmodium berghei', 'INHIBITION', 50.9),
  ('Cc1ccc(S(=O)(=O)N2CSCC2C(=O)NCC(F)(F)F)cc1C (stereo not drawn)', 'Plasmodium berghei', 'INHIBITION', -27.9),
  ('Cc1cncc(NC(=O)c2ccc(CN3CCC(CO)CC3)cc2)c1', 'Plasmodium berghei', 'INHIBITION', -12.4),
  ('CC(C)n1ncc2cc(NC(=O)N3CCSCC3)cnc21', 'Plasmodium berghei', 'INHIBITION', 11.2),
  ('CCc1nc2n(n1)CC(NCc1noc(-c3ccc(C)cc3)n1)CC2 (stereo not drawn)', 'Plasmodium berghei', 'INHIBITION', 31.9),
  ('O=C(CNC(Cn1cccn1)c1ccccc1)Nc1cnccn1 (stereo not drawn)', 'Plasmodium berghei', 'INHIBITION', -12.4);

Given the compound `COc1cc(NC(=O)c2ccc(CN3CC[C@H](O)C3)cc2)cc(OC)c1` , what is its reported INHIBITION?
67.6

Value lookup for INHIBITION; key = `CCCN(C(=O)CN1CCn2c(nnc2C2CC2)C1)C1=CCCCC1`
18.7

Given `CNc1snc(C)c1C(=O)N1CCC(Nc2ccc(C)nn2)CC1` , state its recorded INHIBITION.
1.15

Provenance of the data: ChEMBL document CHEMBL4513216
